For each entry below, report its melting point value.

Record summary for "C[C@@H]1NCC[C@@H]1C(C)(C)O" : reported melting point = 120 to 122 °C

# melting point of CC(O)(C=Cc1ccc(S(=O)(=O)c2ccccc2)cc1)C(F)(F)F (stereo unspecified) = 94 to 97 °C

Per the record, "CCOC(=O)c1c(C)cc2cnc(-c3ccccc3C)nc2c1C" has melting point of 56 to 57 °C

The molecule listed as NS(=O)(=O)c1ccc(C2=NNC(C(=O)O)C2)cc1 (stereo unspecified) has a reported melting point of 224 to 226 °C

# molecule "COCCc1nc2c(N)nc3ccc(Br)cc3c2n1CCCN1CCCC1=O" ; its melting point = 185 to 188 °C

melting point reading for CC(C)C(C#N)c1ccc(OCc2ccccc2)c(OCc2ccccc2)c1 (stereo unspecified) : 75 to 76 °C

response.value for "CCc1cc(C(=O)OC)nn1C" (field: melting point) = 188 to 191 °C

Quick note, melting point for "CSC(=NC#N)NCCN1CCC(Nc2nc3cccnc3n2Cc2ccc(F)cc2)CC1" landed at 172 °C

Just so you know, measured melting point for "CC(=O)Oc1cc2c(c([N+](=O)[O-])c1OC(C)=O)C(=O)C(C)(C)CC2" came out at 145 to 147 °C

Entry under test: "COc1ccc(-c2nc(C)c(C(C)=O)[nH]2)cc1" . Its melting point was 162 to 165 °C

# melting point of "CCOC(=O)c1c(C(=O)c2nc(OC)cc(OC)n2)ccnc1Br" = 98 to 99 °C

# melting point of "CS(=O)(=O)c1ccc(-c2nn(CC3CC3)c(=O)cc2-c2ccc(F)cc2)cc1" = 124 °C

Value of melting point reported for the molecule "COc1ccc(-n2ccn([C@H](C)[C@@]3(c4ccc(F)cc4F)CO3)c2=O)cc1" is 150 to 151 °C

Record CC12CCC(C1)C1(C)Oc3ccc(C(=O)c4ccc(C=O)cc4)cc3C21C (stereo unspecified) . Reported melting point: 138 to 142 °C

melting point recorded for this molecule, CCCCCCN1N=C(c2ccc(OC)c(OC)c2)C2CC=CCC2C1=O (stereo unspecified) , is 74 to 75 °C

Looking up "CCC1(CC)c2cc(N)ccc2-c2ccc(-c3nc4ccccc4s3)cc21" , I see its melting point listed as 206 to 207 °C

// field: melting point; key: CC(=O)NCC1CN(c2cc(F)c(N3CCC(n4ccnn4)C(F)C3)c(F)c2)C(=O)O1 (stereo unspecified) ; value = 176 to 178 °C

Reported melting point of "COc1ccc2c(c1)[nH]c(=O)c(=O)n2C" : 332 °C

melting point measured on "Cc1cccc(C(C)C)c1NC(=O)NCC1(c2ccccc2)CCCC1" = 157 to 159 °C

The recorded melting point for Cc1cc(C)cc(CC(C)(C)NCC(O)c2cc(O)cc3c2OCC(=O)N3)c1 (stereo unspecified) is 235 to 238 °C

Kindly note the recorded melting point for COC(=O)C1=C(C)NC(C)=C(S(=O)(=O)c2ccc(O)cc2)C1c1ccccc1Cl (stereo unspecified) , which is 223 to 225 °C

melting point in this record for "COC(=O)c1cccc(NC(=S)Nc2cc(NC(=O)Nc3ccc(Cl)c(Cl)c3)ccc2OC)c1" : 193 to 194 °C

Sure, the documented melting point for "C[C@@H]1Cc2cc(N3C[C@H](C(N)=O)OC3=O)ccc2N1C(=O)CO" is 198 to 200 °C

Looking up "CCOC(=O)c1ncc2[nH]c3ccc(I)cc3c2c1COC" , I see its melting point listed as 204 to 206 °C

The molecule "O=C(O)c1cc(=O)c2cccc(/C=C/c3ccc(OCCCCc4ccccc4)cc3)c2o1" showed melting point equal to 159 to 161 °C

Sure, the documented melting point for "Fc1cccc(F)c1-c1nnc(-c2c(F)cccc2F)nn1" is 214 °C
